Tested on: ragweed
procedure-details: Test A preemergence
Type: in vivo, Ambrosia artemisiifolia
stated-conditions: 500 g ai/ha, 0 to 100 scale (0 no effect, 100 complete control), 10 days

molecule: Cc1cccc2c1O[C@@H](C)CN2C(=O)c1cccc(-n2cnc(C3CCC3)n2)c1 [Compound 77]
Plant response rating, Ragweed: 0
//
molecule: Cc1ccc(-n2cnc(C(C)C)n2)cc1C(=O)N1C[C@H](C)Oc2c(C)cccc21 [Compound 99]
Plant response rating, Ragweed: 80
//
molecule: CCc1ncn(-c2cccc(C(=O)N3C[C@H](C)Oc4c(Cl)cccc43)c2)n1 [Compound 91]
Plant response rating, Ragweed: 30
//
molecule: C[C@H]1CN(C(=O)c2cccc(-n3cnc(CC4CCCCC4)n3)c2)c2cccc(Cl)c2O1 [Compound 90]
Plant response rating, Ragweed: 0
//
molecule: Cc1cccc2c1O[C@@H](C)CN2C(=O)c1cccc(-n2cnc(C3CC3)n2)c1 [Compound 54]
Plant response rating, Ragweed: 0
//
molecule: Cc1cccc2c1O[C@@H](C)CN2C(=O)c1cccc(-n2cnc(C(C)(C)C)n2)c1 [Compound 65]
Plant response rating, Ragweed: 40
//
molecule: Cc1cccc2c1O[C@@H](C)CN2C(=O)c1cccc(-n2cnc(C(F)(F)F)n2)c1 [Compound 66]
Plant response rating, Ragweed: 0
//
molecule: CCc1ccc(-n2cnc(C3CC3)n2)cc1C(=O)N1C[C@H](C)Oc2c(Cl)cccc21 [Compound 103]
Plant response rating, Ragweed: 0

###

Test system: soybean
procedure-details: Test C postemergence
Assay type: in vivo, Glycine max
stated-conditions: 125 g ai/ha, postemergence, 10 days; 0 to 100 scale, 0 no effect, 100 complete control
This listing pairs compounds with measured Plant response rating, Soybean.

chemical-string: CCn1cnc(-c2cccc(C(=O)N3C[C@H](C)Oc4c(C)cccc43)c2)n1
Plant response rating, Soybean: 30
//
chemical-string: COC[C@H]1CN(C(=O)c2cc(-n3cncn3)ccc2C)c2cccc(Cl)c2O1
Plant response rating, Soybean: 100
//
chemical-string: Cc1cc(-n2cnc(C(C)C)n2)cc(C(=O)N2C[C@H](C)Oc3c(Cl)cccc32)c1Cl
Plant response rating, Soybean: 100
//
chemical-string: CCC(O)(CC)c1ncn(-c2ccc(C)c(C(=O)N3C[C@H](C)Oc4c(Cl)cccc43)c2)n1
Plant response rating, Soybean: 100
//
chemical-string: Cc1ccc(-n2cnc(CC3CC3)n2)cc1C(=O)N1C[C@H](C)Oc2c(Cl)cccc21
Plant response rating, Soybean: 100
//
chemical-string: Cc1cc(-n2cnc(C(C)C)n2)cc(C(=O)N2C[C@H](C)Oc3c(Cl)cccc32)c1F
Plant response rating, Soybean: 100
//
chemical-string: CCc1ccc(-n2cnc(C(C)(C)O)n2)cc1C(=O)N1C[C@H](C)Oc2c(C)cccc21
Plant response rating, Soybean: 100
//
chemical-string: C[C@H]1CN(C(=O)c2cc(-n3cnc(C(C)(C)C)n3)cc3c2OCCO3)c2cccc(Cl)c2O1
Plant response rating, Soybean: 90

###

This listing pairs compounds with measured pest or weed control at 500 g/ha.
Test system: goosegrass
procedure-details: Test A postemergence
Type: in vivo, Eleusine indica
stated-conditions: Eleusine indica, post-emergence, 240 h; 500 g ai/ha, postemergence, 10 days, visual injury, 0 to 100 scale (0 no effect, 100 complete control); read-out: Plant response rating, Goosegrass

compound: Cc1cccc2c1O[C@@H](C)CN2C(=O)c1cccc(-n2cn[nH]c2=O)c1
pest or weed control at 500 g/ha [%]: 60
--
compound: COCc1ncn(-c2cccc(C(=O)N3C[C@H](C)Oc4c(C)cccc43)c2)n1
pest or weed control at 500 g/ha [%]: 80
--
compound: Cc1ccc(-n2cnc(C3CCC3)n2)cc1C(=O)N1C[C@H](C)Oc2c(Cl)cccc21
pest or weed control at 500 g/ha [%]: 60
--
compound: C[C@H]1CN(C(=O)c2cccc(-c3cnn(C)n3)c2)c2cccc(Cl)c2O1
pest or weed control at 500 g/ha [%]: 70
--
compound: Cc1ncn(-c2ccc(C)c(C(=O)N3C[C@H](C)Oc4c(Cl)cccc43)c2)n1 (single isomer, unassigned)
pest or weed control at 500 g/ha [%]: 0
--
compound: Cc1ccc(-n2ncnc2C)cc1C(=O)N1C[C@H](C)Oc2c(Cl)cccc21 (single isomer, unassigned)
pest or weed control at 500 g/ha [%]: 0
